target: T1, human CXCR4-enriched lipoparticles (Homo sapiens, UniProt P61073); assay: Biosensor affinity measurement of Fabs on CXCR4-enriched lipoparticles; type: binding; settings: Fab; kinetic titration
T1 construct: purchased Integral Molecular, Philadelphia Pa; LEV101
T1 sequence (P61073 whole entry): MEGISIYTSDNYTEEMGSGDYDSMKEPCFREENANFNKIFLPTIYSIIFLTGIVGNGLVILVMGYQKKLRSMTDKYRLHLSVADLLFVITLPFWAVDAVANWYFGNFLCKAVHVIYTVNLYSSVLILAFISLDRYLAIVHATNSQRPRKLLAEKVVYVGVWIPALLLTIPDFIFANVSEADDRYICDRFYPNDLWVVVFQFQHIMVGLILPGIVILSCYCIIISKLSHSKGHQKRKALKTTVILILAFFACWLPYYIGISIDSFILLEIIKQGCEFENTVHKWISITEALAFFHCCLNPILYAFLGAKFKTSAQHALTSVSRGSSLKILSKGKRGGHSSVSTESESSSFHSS
Kd values by entry
REPORTED_PROPERTY: Kd (s⁻¹)

MOLECULE	REPORTED_PROPERTY	SCALE_UNIT	ASSAY_VALUE
h3G10.1.91 VH/h3G10.A58B VL: Fab; VH SEQ ID NO:33, VL SEQ ID NO:73 (antibody, V domains shown, Fab) VH: EVQLVESGGGLVQPGGSLRLSCAASGFTFSDYYMSWVRQAPGKGLEWVGFIRHKANFETTEYSTSVKGRFTISRDDSKNSLYLQMNSLKTEDTAVYYCARDLPGFAYWGQGTLVTVSS VL: DIVMTQSPDSLAVSLGERATINCKSSQSLFNSHTRKNYLAWYQQKPGQPPKLLIYWASARGSGVPDRFSGSGSGTDFTLTISSLQAEDVAVYYCKQSFNLRTFGGGTKVEIK	Kd	s⁻¹	0.000286
h3G10 VH/h3G10 VL: Fab; VH SEQ ID NO:21, VL SEQ ID NO:47 (antibody, V domains shown, Fab) VH: EVQLVESGGGLVQPGGSLRLSCAASGFTFSDYYMSWVRQAPGKGLEWVGFIRHKANGYTTEYSTSVKGRFTISRDDSKNSLYLQMNSLKTEDTAVYYCARDLPGFAYWGQGTLVTVSS VL: DIVMTQSPDSLAVSLGERATINCKSSQSLFNSRTRKNYLAWYQQKPGQPPKLLIYWASARESGVPDRFSGSGSGTDFTLTISSLQAEDVAVYYCKQSFNLRTFGGGTKVEIK	Kd	s⁻¹	0.003
h3G10.A57 VH/h3G10.2.72 VL: Fab; VH SEQ ID NO:23, VL SEQ ID NO:49 (antibody, V domains shown, Fab) VH: EVQLVESGGGLVQPGGSLRLSCAASGFTFSDYYMSWVRQAPGKGLEWVGFIRHKANFYTTEYSTSVKGRFTISRDDSKNSLYLQMNSLKTEDTAVYYCARDLPGFAYWGQGTLVTVSS VL: DIVMTQSPDSLAVSLGERATINCKSSQSLFNSRTRKNYLAWYQQKPGQPPKLLIYWASARESGVPDRFSGSGSGTDFTLTISSLQAEDVAVYYCKQSFRLRTFGGGTKVEIK	Kd	s⁻¹	0.0013
h3G10.A57 VH/h3G10.A58A VL: Fab; VH SEQ ID NO:23, VL SEQ ID NO:57 (antibody, V domains shown, Fab) VH: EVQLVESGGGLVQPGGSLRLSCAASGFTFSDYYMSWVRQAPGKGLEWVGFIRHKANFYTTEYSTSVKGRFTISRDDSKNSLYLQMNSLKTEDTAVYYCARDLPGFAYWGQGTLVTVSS VL: DIVMTQSPDSLAVSLGERATINCKSSQSLFNSHTRKNYLAWYQQKPGQPPKLLIYWASARGSGVPDRFSGSGSGTDFTLTISSLQAEDVAVYYCKQSFRLRTFGGGTKVEIK	Kd	s⁻¹	0.00063
